test system: Tau-BiFC cells; assay: Cell viability (cytotoxicity) in tau-BiFC cells, count of stained nuclei; assay type: cell-based; conditions: compounds marked *: measured at 3 μM; Forskolin-only group = 100% cell viability
Recorded Cell viability, one value per entry.
observable: Cell viability (%)

| molecule | quantitativeResult |
| --- | --- |
| Cc1cnc(COc2ccc(NN=C(C#N)C#N)cc2C)cn1 | 98 |
| Cc1cc(NN=C(C#N)C#N)ccc1OCc1ncccn1 | 125 |
| CC(Oc1ccc(NN=C(C#N)C#N)cc1)c1cccnc1 (stereo not shown) | 135 |
| COc1cc(NN=C(C#N)C#N)ccc1OCc1ccc(C(F)(F)F)cc1 | 80 |
| Cc1cc(NN=C(C#N)C#N)ccc1OCc1nc2ccccc2s1 | 124 |
| Cc1cc(NN=C(C#N)C#N)ccc1OCc1cccnn1 | 124 |
| COc1cc(NN=C(C#N)C#N)ccc1OCc1ccccc1 | 122 |
| Cc1cc(NN=C(C#N)C#N)ccc1OCc1cccnc1 | 95 |
| Cc1cc(NN=C(C#N)C#N)ccc1OCc1cc[nH]n1 | 126 |
| COc1cc(NN=C(C#N)C#N)ccc1OCc1ncccn1 | 119 |
| COc1cc(NN=C(C#N)C#N)ccc1OCc1cnccn1 | 114 |
| COc1cc(NN=C(C#N)C#N)ccc1OCc1cc2ccccc2s1 | 96 |
| COc1cc(NN=C(C#N)C#N)ccc1OCc1cccnn1 | 109 |
| COc1cc(NN=C(C#N)C#N)ccc1OCc1cccnc1 | 111 |
| COc1cc(NN=C(C#N)C#N)ccc1OCc1nc2ccccc2s1 | 113 |
| Cc1cc(NN=C(C#N)C#N)ccc1OCc1ccccc1 | 109 |

---

system: Tau-BiFC cells; test: Cell viability (cytotoxicity) in tau-BiFC cells, count of stained nuclei; assay type: cell-based; details: compound 10 μM; Forskolin-only group = 100% cell viability
Label key: Satisfied means Cell viability (% @10 μM) under 80%; Not satisfied means Cell viability (% @10 μM) of 80% or more.

| compound | class |
| --- | --- |
| Cc1cnc(C(=O)Nc2cc(C)c(NN=C(C#N)C#N)cn2)cn1 [Compound 13] | Not satisfied |
| N#CC(C#N)=NNc1ccc(Oc2nccs2)cc1 [Compound 116] | Not satisfied |
| N#CC(C#N)=NNc1ccc(OCc2ccc(C(F)(F)F)cc2)c(C(F)(F)F)c1 [Compound 98] | Satisfied |
| N#CC(C#N)=NNc1ccc(OCc2ccccc2)nc1 [Compound 95] | Satisfied |
| COc1cc(NN=C(C#N)C#N)ccc1C(=O)Nc1cnc(C)cn1 [Compound 104] | Not satisfied |
| N#CC(C#N)=NNc1ccc(Oc2ccc(C(F)(F)F)nc2)cc1 [Compound 89] | Satisfied |
| N#CC(C#N)=NNc1ccc(Oc2cccnc2)cc1 [Compound 85] | Not satisfied |

---

system: Tau-BiFC cells; assay: Cell viability (cytotoxicity) in tau-BiFC cells, count of stained nuclei; assay type: cell-based; settings: compound 10 μM; Forskolin-only group = 100% cell viability

| structureSmiles | Cell viability (% @10 μM), % |
| --- | --- |
| N#CC(C#N)=NNc1ccc(NC(=O)c2ccoc2)nc1 | 160.5 |
| Cc1cccc(C(=O)Nc2ccc(NN=C(C#N)C#N)cn2)c1F | 110.4 |
| Cc1cccc(C(=O)Nc2ccc(NN=C(C#N)C#N)cn2)c1 | 103.9 |
| N#CC(C#N)=NNc1ccc(Oc2cccc(F)c2)nc1 | 119.4 |
| Cc1cc(NN=C(C#N)C#N)ccc1NC(=O)c1cscn1 | 136.4 |
| Cc1cnc(NC(=O)c2ccc(NN=C(C#N)C#N)cc2Cl)cn1 | 184.9 |
| COc1cc(NN=C(C#N)C#N)ccc1C(=O)Nc1cncc(C)c1 | 137.9 |
| Cc1ccc(NC(=O)c2ccc(NN=C(C#N)C#N)cc2)cn1 | 122.7 |
| Cc1cnc(C(=O)Nc2ccc(NN=C(C#N)C#N)c(C)c2)cn1 | 61.3 |
| N#CC(C#N)=NNc1ccc(C(=O)Nc2cccnc2)nc1 | 130.7 |

---

assay: Liver microsome stability; format: in vitro ADME, mouse; conditions: amount of substrate remaining; compound 1 μM, 30 minutes, 37° C., NADPH

| structureSmiles | unitSpec | Mouse (%) |
| --- | --- | --- |
| Cc1cccc(C(=O)Nc2ccc(NN=C(C#N)C#N)cn2)c1F | % | 68.3 |
| COc1cc(NN=C(C#N)C#N)ccc1OCc1csc(C)n1 | % | 70.3 |
| COc1cc(NN=C(C#N)C#N)ccc1OCc1nc2ccccc2o1 | % | 68.1 |
| COc1cc(NN=C(C#N)C#N)ccc1OCc1nc2ccccc2s1 | % | 69.6 |

---

biological target: tau protein (Homo sapiens, UniProt P10636); construct: fused on or other part: Split fluorescent-protein halves for BiFC are fused to tau; In the published tau-BiFC line these are Venus VN173 and VC155; test: Tau-BiFC cell model: inhibition of tau protein aggregation; format: cell-based; conditions: 48 h; compound 10 μM; BiFC fluorescence, Forskolin-only group = 100% tau protein-aggregated state; read-out: Response (% @10 μM)
Sequence (P10636 2-441 isoform P10636-8 limits assumed): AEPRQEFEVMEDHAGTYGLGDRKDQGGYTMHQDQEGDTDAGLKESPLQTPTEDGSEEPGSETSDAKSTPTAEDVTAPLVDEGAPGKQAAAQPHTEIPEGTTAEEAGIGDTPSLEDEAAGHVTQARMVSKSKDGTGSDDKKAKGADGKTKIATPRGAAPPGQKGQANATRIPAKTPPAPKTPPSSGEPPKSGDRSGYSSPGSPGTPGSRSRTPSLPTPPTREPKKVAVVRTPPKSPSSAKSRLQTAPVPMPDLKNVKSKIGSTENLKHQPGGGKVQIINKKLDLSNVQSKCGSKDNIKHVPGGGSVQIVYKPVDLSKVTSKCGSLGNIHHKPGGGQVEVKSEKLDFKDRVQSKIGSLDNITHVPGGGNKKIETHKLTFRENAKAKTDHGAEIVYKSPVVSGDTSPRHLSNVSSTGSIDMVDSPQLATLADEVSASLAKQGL

| molecule | remaining activity at 10 µM [%] |
| --- | --- |
| COc1cc(C(=O)Nc2cnc(C)cn2)ccc1NN=C(C#N)C#N [Compound 51] | 45.4 |
| Cc1ccc(NC(=O)c2ccc(NN=C(C#N)C#N)cn2)cn1 [Compound 38] | 0 |
| N#CC(C#N)=NNc1ccc(Oc2cnccn2)cc1 [Compound 84] | 0 |
| N#CC(C#N)=NNc1ccc(Oc2ccc(C#N)cc2)cc1 [Compound 87] | 0 |
| N#CC(C#N)=NNc1ccc(NC(=O)c2ccccc2)nc1 [Compound 15] | 0 |
| N#CC(C#N)=NNc1ccc(C(=O)Nc2cncnc2)cc1 [Compound 50] | 86.6 |
| Cc1cnc(C(=O)Nc2ccc(NN=C(C#N)C#N)c(C)c2)cn1 [Compound 6] | 43.9 |
| N#CC(C#N)=NNc1ccc(NC(=O)c2cccc(F)c2)nc1 [Compound 18] | 0 |
| N#CC(C#N)=NNc1ccc(Oc2ccccn2)cc1 [Compound 83] | 0 |
| N#CC(C#N)=NNc1ccc(NC(=O)c2cccc(C(F)(F)F)c2)nc1 [Compound 26] | 0 |
| N#CC(C#N)=NNc1ccc(Oc2ncccn2)cc1 [Compound 91] | 0 |
| COc1ccc(NC(=O)c2ccc(NN=C(C#N)C#N)cc2OC)cc1 [Compound 109] | 0 |
| COc1ccc(CCOc2ccc(NN=C(C#N)C#N)cn2)cc1 [Compound 102] | 0 |
| N#CC(C#N)=NNc1ccc(OCc2nc3ccccc3s2)cc1 [Compound 129] | 0 |
| Cc1cnc(C(=O)Nc2ccc(NN=C(C#N)C#N)cc2Cl)cn1 [Compound 11] | 0 |
| N#CC(C#N)=NNc1ccc(OCc2ccc(C(F)(F)F)cc2)c(C(F)(F)F)c1 [Compound 98] | 0 |
| Cc1cnc(C(=O)Nc2ccc(NN=C(C#N)C#N)c(F)c2)cn1 [Compound 3] | 0 |
| N#CC(C#N)=NNc1ccc(OCCc2ccccc2)nc1 [Compound 100] | 0 |
| Cc1ccc(NS(=O)(=O)c2ccc(NN=C(C#N)C#N)cc2)cn1 [Compound 65] | 72.6 |
| Cn1cc(S(=O)(=O)Nc2ccc(NN=C(C#N)C#N)cn2)cn1 [Compound 61] | 109 |
| Cc1cncc(NC(=O)c2ccc(NN=C(C#N)C#N)cn2)n1 [Compound 41] | 0 |

---

biological target: CYP2C9 (Homo sapiens, UniProt P11712); construct: human liver microsomes (0.25 mg/mL); from tissue; host or cells: human liver microsomes; assay: Inhibitory effect on CYP coenzyme activity, human liver microsomes; format: in vitro ADME; conditions: compound 10 μM; human liver microsomes 0.25 mg/mL; substrate diclofenac; 15 minutes
Sequence (P11712 whole entry): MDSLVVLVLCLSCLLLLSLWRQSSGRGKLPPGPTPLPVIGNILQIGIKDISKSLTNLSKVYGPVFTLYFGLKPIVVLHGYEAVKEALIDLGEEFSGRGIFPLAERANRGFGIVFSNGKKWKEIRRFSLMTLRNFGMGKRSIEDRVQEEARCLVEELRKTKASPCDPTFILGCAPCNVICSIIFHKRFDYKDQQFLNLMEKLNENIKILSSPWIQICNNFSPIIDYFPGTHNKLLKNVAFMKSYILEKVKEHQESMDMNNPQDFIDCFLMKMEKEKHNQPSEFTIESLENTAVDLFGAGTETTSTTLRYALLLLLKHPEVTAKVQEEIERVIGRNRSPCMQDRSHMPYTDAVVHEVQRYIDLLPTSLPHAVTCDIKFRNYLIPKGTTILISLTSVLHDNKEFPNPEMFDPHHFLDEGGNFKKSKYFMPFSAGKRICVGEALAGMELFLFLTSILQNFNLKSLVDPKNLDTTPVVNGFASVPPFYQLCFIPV
As shown below, each of these compounds has a reported CYP2C9 value.

| structureSmiles | measurementTarget | CYP2C9 |
| --- | --- | --- |
| COc1cc(NN=C(C#N)C#N)ccc1OCc1cnc(C)cn1 | CYP2C9 (Homo sapiens, UniProt P11712) | 73.5 |
| N#CC(C#N)=NNc1ccc(NC(=O)c2ccoc2)nc1 | CYP2C9 (Homo sapiens, UniProt P11712) | 77.1 |
| Cc1cc(NN=C(C#N)C#N)ccc1OCc1nc2ccccc2[nH]1 | CYP2C9 (Homo sapiens, UniProt P11712) | 47.2 |

---

Reported Rat (%) values are given for each entry in this list.
Assay: Liver microsome stability
Assay type: in vitro ADME, rat
Details: amount of substrate remaining; compound 1 μM, 30 minutes, 37° C., NADPH
Experimental: The stability of liver microsomes due to the compounds prepared according to Examples 1 to 175 was confirmed. […] The amount of the substrate remaining after the reaction was analyzed using the Shimadzu Nexera XR system and TSQ Vantage (Thermo). […]

| molecule | Rat (%) |
| --- | --- |
| COc1cc(NN=C(C#N)C#N)ccc1OCc1ccc(C(F)(F)F)cc1 [Compound 155] | 82 |
| N#CC(C#N)=NNc1ccc(NC(=O)c2ccoc2)nc1 [Compound 110] | 81.8 |
| Cc1cc(NN=C(C#N)C#N)ccc1OCc1cc2ccccc2s1 [Compound 150] | 78.7 |
| Cc1cc(F)cc(C(=O)Nc2ccc(NN=C(C#N)C#N)cn2)c1 [Compound 19] | 51.4 |
| Cc1cc(NN=C(C#N)C#N)ccc1OCc1cccnn1 [Compound 149] | 82.2 |
| COc1cc(NN=C(C#N)C#N)ccc1OCc1csc(C)n1 [Compound 171] | 80.3 |
| COc1cc(NN=C(C#N)C#N)ccc1OCc1nc2ccccc2s1 [Compound 165] | 42.4 |
| Cc1cncc(NC(=O)c2ccc(NN=C(C#N)C#N)cc2)n1 [Compound 46] | 86.3 |
| N#CC(C#N)=NNc1ccc(Oc2cccc(F)c2)nc1 [Compound 69] | 75.6 |
| Cc1cnc(C(=O)Nc2ccc(NN=C(C#N)C#N)c(F)c2)cn1 [Compound 3] | 72.6 |
